Here the recorded melting point is given for each entry.

compound | melting point
CC(=O)Nc1cc(O)ccc1-c1cc(=O)c2ccccc2o1 [Example 8] | 253 to 255 °C
Cl.Nc1cccc2c(=O)cc(-c3ccc(O)c(F)c3)oc12 | 256.4 to 258.5 °C
COCc1c(-c2ccc(O)cc2)oc2ccccc2c1=O [Example 26] | 237 to 239 °C
CC(=O)Oc1ccc(-c2cc(=O)c3cc(Br)cc([N+](=O)[O-])c3o2)cc1F [Example 25] | 236.2 to 238.5 °C
O=c1cc(-c2ccc(O)cc2F)oc2ccccc12 [Example 15] | 287 to 289 °C
N#Cc1ccc2oc(-c3ccc(O)cc3)cc(=O)c2c1 [Example 23] | 296 to 298 °C

Dear colleague, I am looking for the recorded melting point of the following compound: Oc1ccc(-c2cc3ncccc3cn2)cc1 [Example 57, 4-(1,6-naphthyridin-7-yl)phenol] 219 to 221 °C

Dear colleague, I am looking for the recorded melting point of the following compound: O=c1nc(-c2ccc(O)cc2)oc2ccccc12 [Example 67] 273 to 275 °C

Dear colleague, I am looking for the recorded melting point of the following compound: CC(=O)Oc1ccc(-c2cc(=O)c3cccnc3o2)cc1 [Example 75] 167 to 169 °C
